What soluble fraction (log2) was measured for each of the following?
Assay: soluble fraction after stress (log2 fold change); higher = more stays soluble; pooled small domains, quantitative proteomics;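 note: 20 min heating vs room temperature control held 20 min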
Details: stress: 75 degC

soluble fraction (log2) reading for HMHVSLADQAYKTIRTNILNLTYPPGTQLTEAKLASDLNMSRSPVRTAIKMLQADGLLVSDYYKSMTVK : -1.21

GET /value?item= HMAQSLAQKINNYILTNRSSIANVAKSIGYSRTTVSRYLAGKYDSDPTDLENKLAEFLAHETGE &field=soluble fraction (log2) returns -0.253

So, HMSDYKSALQEAVQTNKQSIEYVLIKESGPAHNKTFTFEVRIDNISYGVGTAKSKKEAEQIAAKDALDKLV ? Its soluble fraction (log2) was -0.0877

The sequence identified as HMKKKLPRYLQEQKYGNGMVFYRYNPTARYIDEGIVTRTNLGSDLSIAKKKANEFNKLIDAFLQQQSE registered its soluble fraction (log2) at -1.16

For reference, reported soluble fraction (log2) for HMALLSNEDIMFNLEFNRDLAVASNDGVSRDEFLRNKYGISEEEYNMLRARYGDGLNAARIKEYVGQRD stands at -0.182

----------
Experiment: soluble fraction after stress (log2 fold change); higher = more stays soluble; pooled small domains, quantitative proteomics
Conditions: stress: 75 degC
Each record's class is read off its soluble fraction (log2) using these ranges: low value = under -1, medium value = from -1 up to -0.1, high value = -0.1 and over

Category of HMRGWGTVKRRTPKSGRYRASYIGPDGKRYAADHTYAAKVDADAWLSSERALITAGVWTPPTDRVT :
medium value

GET /class?item= HMIEYYDDEELDVFKGRQSDNYTNKEIEQFAEVLHTMRQDEVKGWNRSLILRSINLPDSLKDEVIMLI
medium value

Hi there! Could you help me figure out the category for HMDRSKREKEQQELMLKVQQIFDDNQQRFGAEKIRTVLAQNGVRVSVKRVSAIMQELNLRSIR please?
low value

Please indicate the class for HMQMEDTDALLQVAKEVVAENQDTVEAYLGGREKAFASLIGAAMKKTRGKANPKVIRQLILDLIQ based on its soluble fraction (log2).
high value

Please indicate the class for HMAARKDLIAGEDAEGRLDAWLAAALDGEFSRNRVKALIEQGAVAINDVAVTEPKRKIRPGDRLSIVLPEP based on its soluble fraction (log2).
high value

Kindly identify the class of HMNAYEVLIPNIYIGQRVDQTLASLFPQFSRSRLQNWLARGNLLIDGEIIKPKTKVLGGEQIIILDT .
low value

Category of HMAIKWTPEIEDEVSNKLKEKWSPEQISAWLKKNKSIMISHQRIYQFIVEDKMSGGNLYRNLRQ , please.
low value

Hi, small favor: classify HMNEMEFAQRLRQFRKAKNLTQQELADRLGVSNKSVSRWESGSYPDVGTLVALARALGVTVDELLDPKA by its soluble fraction (log2) when you get a moment.
high value

Category of HMSIPVLKDGTYESWGNEKVYKVGDRVMVGSNGYVAKWWNQDETPEKAIINPNDSPWRPMTESEIMEVLK , please.
medium value

# bin lookup: classify HMKDEGSLKVIGQMVVIGIPQSEAKRFANTYTVAQIRAALQYTQKRSEDKNASKLENVAAYFRQALVRNWG by its soluble fraction (log2)
low value

Just checking, what class would you give HMIADPLVINKLMDSMALAINDYNPDSVEPVLDELRQYFSENQLRELSKAMDDFDFDEALNALTLLRT here?
medium value

Which of the defined bands does the recorded soluble fraction (log2) of HMNYYYKDNQYWYVGFRYDERLVKEIKRFVGAGYNPENKEWYIPFTLPTVAPLQKWLHDNGFVEGMNYYP sit within?
low value

Assign a category based on measured soluble fraction (log2) for HMSSGLLTVQEQRILEHLANGERNGDIAGRLHISEGTVKWHLHNMYRKLDAATRTQAVARARALRL and give only the class name.
high value

Hi, small favor: classify HMNQIFAPMPGLVLEVKLSEGDVVAEGESAIILEAMKMENIIKSPINGIVKKVHVKKGQTIEKNTLIISFK by its soluble fraction (log2) when you get a moment.
low value

Quick check: band for HMNRIKIYPTPGSKVLSIENINFSLIHDFKILDIFGREVKNFTVSSEKNTKMLVDTSKLSDGLYFIFFNTF
low value

Which class does HMARSVAEFVERGRSGGSLERPKLQRMLEYIQDRPVDFVIVHKIDRLARNRADDAAITKTIRGAGAYLVST fall in?
high value

Into which category would you place HMSSKTKVEDLGLSTRTLNALIGGSIKTAGGLTRKSESDLLSLDGLGEKGITEIKEALENIGLSLK ?
high value

Form field 'band' for HMRPQYVDLFTKLSAEEAGAITSKLKELKVEYQLADNGSTIKVPQKDAAEIRLELANEGLPA
high value

Determine which band this sequence sits in: HMYRSGGYTGAGKDDEEAGVVHRNEFVNTADAVRNPHVKRFLDVFNVAQKDGTIRMLNTSQILERARLDA
high value

Band assignment needed for HMERYFVLVIYDIVDNKKRLKLSKYLLGYGIRVQKSAFEMMITKEKYNKLIKELPTYIEEGEDSIRLY please.
high value

Band of HMETGNEDYRVGKELAYDGNYKAATIYLMKSIKDDPNNPDAFNMLGFSHRKLGNNDEAYIYYNKALEL ?
medium value

Please classify: HMSQLYINATDDGWVIGNLPADAREVLLTTLGGQVVARYHVTAPSLRVKAPRKGVYIVSVETA
low value

Hi, small favor: classify HMAPPDFTTFMRNYQDMVYSTAVRLIGNETQAEDIAQEVFIKAHAHFENLRTSPSAGGWLKTVATNLSIN by its soluble fraction (log2) when you get a moment.
low value

Class label required: HMSSDLESVIGTHSQEANFALRSWGWIQPDETWKNLRPDQVSQILERANEFMAKAIESFANAQSE
medium value

Band for the recorded soluble fraction (log2) of HMGAGKVVDGVTYDFVFDVDVADGQPPLRLPYNRGEDVYQAAERFILRNELPATYREQIVNFIVQNTPG ?
medium value

Lab log: HMGWEDLVGKTAVVKVALAPVGMVFFRGEFWSAISETGRIEPGEEVTISRIDGLKLYVTKKRIM — assign soluble fraction (log2) category
low value

# classify by soluble fraction (log2) band: HMAQVSDTGAIAKIVADAIAANPKQVQQYLDGNEKVLMYLVGQVMKLSKGKANPPMVIQLLKEQLG
medium value

Entry HMHLKDEHGLTPKQRAFADEYVITLNATVSYKKIYSVKRDSVASTNGSRLLGNANVKAYIDKRLEE belongs to which category?
low value

For this sequence, which bin applies? HMNFRESVLAVFENSKQKYLDFDEIAKRLGLTRGFDRQALASMLNELTRNDEIVFTKRNKYTLPEN
medium value
